target: XO (Bos taurus); construct: purchased Roche Diagnostics (Mannheim, Germany); assay: Fluorescence quenching assay of XO; format: binding, Bovine; conditions: 310 K, pH 7.5
ASSAY_ENDPOINT: Quenching rate constant Kq (M⁻¹ s⁻¹)
Kindly provide the numeric value in M⁻¹ s⁻¹ only, without the unit symbol.

Reference set (3 entries):
Return Quenching rate constant Kq (reported value) for this molecule: COc1cc(CC(=O)O)ccc1O [Homovanillic acid, homovanillic acid] 2.4957e+14

In one line, give reported Quenching rate constant Kq of the entry O=c1c(O)c(-c2ccc(O)cc2)oc2cc(O)cc(O)c12 [Kaempferol, kaempferol] . 9.925e+13

Tell me Quenching rate constant Kq reported for O=C(O)/C=C/c1ccccc1 [Trans-cinnamic acid, trans-cinnamic acid] 9.943e+13

Continuing:
Identify the reported Quenching rate constant Kq for the following entry. O=c1cc(-c2ccc(O)cc2)oc2cc(O)cc(O)c12 [Apigenin, apigenin] 6.504e+13

###

molecular target: XO (Bos taurus); construct: purchased Roche Diagnostics (Mannheim, Germany); experiment: Circular dichroism (CD) analysis of XO secondary structure; set-up: species or system Bovine; details: molar ratio XO:inhibitor 1:5, pH 7.5 (free XO 15.4)
ASSAY_ENDPOINT: Random Coil (%) of XO

Solved cases (3 shown):
Given the compound O=c1cc(-c2ccc(O)cc2)oc2cc(O)cc(O)c12 , write its reported Random Coil (%) of XO. 22.2%

Return Random Coil (%) of XO (reported value) for this compound: O=c1c(O)c(-c2ccc(O)cc2)oc2cc(O)cc(O)c12 11.2%

Retrieve Random Coil (%) of XO measured for COc1cc(CC(=O)O)ccc1O and print it. 0.0%

Next:
Check the records and state Random Coil (%) of XO for O=C(O)/C=C/c1ccccc1 [Trans-cinnamic acid, trans-cinnamic acid] 0.0%

###

Measured Quenching constant KSV accompanies every entry in the list below.
Target: XO (Bos taurus, UniProt P80457)
Construct: purchased Roche Diagnostics (Mannheim, Germany)
Sequence (P80457 whole entry): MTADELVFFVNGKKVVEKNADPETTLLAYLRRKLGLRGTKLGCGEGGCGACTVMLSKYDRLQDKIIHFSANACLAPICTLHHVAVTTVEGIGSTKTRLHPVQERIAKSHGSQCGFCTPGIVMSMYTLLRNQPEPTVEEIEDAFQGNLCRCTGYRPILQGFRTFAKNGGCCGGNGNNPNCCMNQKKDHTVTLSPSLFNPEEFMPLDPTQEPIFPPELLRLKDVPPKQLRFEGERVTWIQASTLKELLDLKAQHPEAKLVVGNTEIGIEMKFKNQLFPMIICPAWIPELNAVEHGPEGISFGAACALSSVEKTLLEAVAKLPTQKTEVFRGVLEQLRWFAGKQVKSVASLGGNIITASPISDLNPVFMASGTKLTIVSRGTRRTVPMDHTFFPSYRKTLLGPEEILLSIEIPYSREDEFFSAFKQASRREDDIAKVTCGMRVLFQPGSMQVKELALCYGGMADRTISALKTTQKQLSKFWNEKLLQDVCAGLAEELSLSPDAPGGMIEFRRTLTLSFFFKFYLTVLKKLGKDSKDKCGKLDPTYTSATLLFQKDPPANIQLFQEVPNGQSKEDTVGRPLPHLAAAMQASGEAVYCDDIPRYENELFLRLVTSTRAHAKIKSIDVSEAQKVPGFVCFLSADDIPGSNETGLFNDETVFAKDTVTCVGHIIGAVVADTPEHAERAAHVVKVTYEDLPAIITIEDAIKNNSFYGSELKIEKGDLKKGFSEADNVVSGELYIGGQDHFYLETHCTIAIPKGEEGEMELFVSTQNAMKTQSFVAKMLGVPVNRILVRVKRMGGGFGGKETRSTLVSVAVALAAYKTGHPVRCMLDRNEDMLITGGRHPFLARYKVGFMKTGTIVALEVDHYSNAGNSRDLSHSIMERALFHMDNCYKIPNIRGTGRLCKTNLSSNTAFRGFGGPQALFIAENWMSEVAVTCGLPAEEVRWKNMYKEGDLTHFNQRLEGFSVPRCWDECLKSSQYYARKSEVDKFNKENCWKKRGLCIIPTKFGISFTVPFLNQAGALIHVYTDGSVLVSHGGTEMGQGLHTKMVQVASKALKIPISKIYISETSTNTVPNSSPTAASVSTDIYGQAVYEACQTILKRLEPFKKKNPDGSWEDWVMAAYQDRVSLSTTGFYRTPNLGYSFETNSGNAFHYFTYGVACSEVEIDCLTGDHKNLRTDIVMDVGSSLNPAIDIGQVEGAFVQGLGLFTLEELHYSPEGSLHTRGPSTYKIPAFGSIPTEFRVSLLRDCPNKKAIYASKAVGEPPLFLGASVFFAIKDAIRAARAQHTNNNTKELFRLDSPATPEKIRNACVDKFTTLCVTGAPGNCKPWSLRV
Assay: Fluorescence quenching assay of XO
Format: binding, Bovine
Settings: 304 K, pH 7.5
Experimental: The assay was carried out by referring to a previous method with slight modifications. […] Titrations were performed manually and mixed carefully. […] The excitation wavelength was set at 280 nm, and the excitation and emission slits were 5 nm. The fluorescence background was corrected by subtracting the relevant blanks corresponding to the potassium phosphate buffer (pH 7.5). […]
Report as a plain number; the unit L/mol is understood.

Indicate the recorded Quenching constant KSV value for this molecule: O=c1cc(-c2ccc(O)cc2)oc2cc(O)cc(O)c12 332400

Give reported Quenching constant KSV value for COc1cc(CC(=O)O)ccc1O 93100

Give Quenching constant KSV for O=C(O)/C=C/c1ccccc1 [Trans-cinnamic acid, trans-cinnamic acid] 282300

Further cases:
Given the molecule O=c1c(O)c(-c2ccc(O)cc2)oc2cc(O)cc(O)c12 , write its reported Quenching constant KSV. 396400

###

biological target: XO (Bos taurus); construct: purchased Roche Diagnostics (Mannheim, Germany); experiment: Circular dichroism (CD) analysis of XO secondary structure; design: species or system Bovine; details: molar ratio XO:inhibitor 1:10, pH 7.5 (free XO 65.0)
Below: a set of entries, each annotated with reported β-Sheet (%) of XO.
Please respond with the number in % and leave the unit unwritten.

Output β-Sheet (%) of XO of O=c1c(O)c(-c2ccc(O)cc2)oc2cc(O)cc(O)c12 65.8

Answer with the recorded β-Sheet (%) of XO for the compound listed here: COc1cc(CC(=O)O)ccc1O 67.9

Identify β-Sheet (%) of XO associated with the compound O=C(O)/C=C/c1ccccc1 [Trans-cinnamic acid, trans-cinnamic acid] 66.9

Further cases:
Query β-Sheet (%) of XO for O=c1cc(-c2ccc(O)cc2)oc2cc(O)cc(O)c12 63.3

###

Each entry below carries its reported pKd.
target: XO (Bos taurus); construct: purchased Roche Diagnostics (Mannheim, Germany); assay: Fluorescence quenching assay of XO; assay type: binding, Bovine; details: Modified Stern-Volmer association constant Ka, 304 K, pH 7.5
The value called pKd is obtained by taking minus log10 of the concentration in mol/L.

Before answering, review these 2 worked examples.
Specify measured pKd for COc1cc(CC(=O)O)ccc1O . 5.57

Indicate the recorded pKd value for this compound: O=c1cc(-c2ccc(O)cc2)oc2cc(O)cc(O)c12 5.46

Others:
Look up pKd of O=C(O)/C=C/c1ccccc1 [Trans-cinnamic acid, trans-cinnamic acid] and report it. 5.44

###

molecular target: XO (Bos taurus, UniProt P80457); construct: purchased Roche Diagnostics (Mannheim, Germany); assay: Fluorescence quenching assay of XO; type: binding, Bovine; conditions: 310 K, pH 7.5
ASSAY_ENDPOINT: Quenching constant KSV (L/mol)
Write the answer as a number in L/mol, unit excluded.

Look up and state reported Quenching constant KSV for O=c1c(O)c(-c2ccc(O)cc2)oc2cc(O)cc(O)c12 277900

Give a short answer stating reported Quenching constant KSV for O=C(O)/C=C/c1ccccc1 [Trans-cinnamic acid, trans-cinnamic acid] . 278400

Indicate its recorded Quenching constant KSV; the molecule in question is O=c1cc(-c2ccc(O)cc2)oc2cc(O)cc(O)c12 182100

---
Specify measured Quenching constant KSV for COc1cc(CC(=O)O)ccc1O . 698800

###

The reader will find reported Quenching rate constant Kq values listed item by item below.
biological target: XO (Bos taurus, UniProt P80457); construct: purchased Roche Diagnostics (Mannheim, Germany); assay: Fluorescence quenching assay of XO; assay type: binding, Bovine; details: 298 K, pH 7.5

Would you please look over these solved cases?
GET Quenching rate constant Kq where system = XO (Bos taurus, UniProt P80457) and item = O=c1cc(-c2ccc(O)cc2)oc2cc(O)cc(O)c12 [Apigenin, apigenin] 4.65e+13 M⁻¹ s⁻¹

Write down the reported Quenching rate constant Kq (system: XO (Bos taurus, UniProt P80457)) of COc1cc(CC(=O)O)ccc1O [Homovanillic acid, homovanillic acid] 1.754e+13 M⁻¹ s⁻¹

Please respond with reported Quenching rate constant Kq (system XO (Bos taurus, UniProt P80457)) for O=c1c(O)c(-c2ccc(O)cc2)oc2cc(O)cc(O)c12 [Kaempferol, kaempferol] . 3.489e+13 M⁻¹ s⁻¹

Moving on to the next compound.
Please report Quenching rate constant Kq with XO (Bos taurus, UniProt P80457) for item O=C(O)/C=C/c1ccccc1 [Trans-cinnamic acid, trans-cinnamic acid] . 6.429e+13 M⁻¹ s⁻¹

###

Catalogue of compounds with associated β-Sheet (%) of XO
target: XO (Bos taurus, UniProt P80457); construct: purchased Roche Diagnostics (Mannheim, Germany); assay: Circular dichroism (CD) analysis of XO secondary structure; set-up: species or system Bovine; details: molar ratio XO:inhibitor 1:5, pH 7.5 (free XO 65.0)
Write the value in % as a bare number.

Example cases with answers are listed next.
Send back XO (Bos taurus, UniProt P80457) β-Sheet (%) of XO of O=C(O)/C=C/c1ccccc1 [Trans-cinnamic acid, trans-cinnamic acid] only. 63.6

State measured β-Sheet (%) of XO of the compound O=c1c(O)c(-c2ccc(O)cc2)oc2cc(O)cc(O)c12 with XO (Bos taurus, UniProt P80457). 71.7

Provide XO (Bos taurus, UniProt P80457) β-Sheet (%) of XO reading for O=c1cc(-c2ccc(O)cc2)oc2cc(O)cc(O)c12 . 67.0

Turning now to a further record.
Report β-Sheet (%) of XO under test system XO (Bos taurus, UniProt P80457) for COc1cc(CC(=O)O)ccc1O . 63.7

###

molecular target: XO (Bos taurus, UniProt P80457); construct: purchased Roche Diagnostics (Mannheim, Germany); assay: Fluorescence quenching assay of XO; format: binding, Bovine; conditions: 304 K, pH 7.5
ASSAY_ENDPOINT: Quenching rate constant Kq (M⁻¹ s⁻¹)
Write the value in M⁻¹ s⁻¹ as a bare number.

Report measured Quenching rate constant Kq; entry is O=c1c(O)c(-c2ccc(O)cc2)oc2cc(O)cc(O)c12 1.416e+14

Provide measured Quenching rate constant Kq value, entry: O=C(O)/C=C/c1ccccc1 [Trans-cinnamic acid, trans-cinnamic acid] 1.008e+14

State, in one line, measured Quenching rate constant Kq of COc1cc(CC(=O)O)ccc1O 3.325e+13

Determine from records and report Quenching rate constant Kq for O=c1cc(-c2ccc(O)cc2)oc2cc(O)cc(O)c12 1.187e+14
